System: HCC 2998
measurementDescription: NCI tumour cell line growth inhibition, 48 h
Calls of active or inactive are those of the source. Cut-off read from the data, not from the text of the source: active = GI50 up to about 1.1 µM and inactive = higher.
reportedEndpoint: GI50

Prompt: Given COc1nc(NC2OC(COC(C)=O)C(OC(C)=O)C(OC(C)=O)C2OC(C)=O)c2c(OC(C)=O)cc(=O)oc2n1 (stereo not given) , state its recorded GI50.
Completion: > 100 µM (inactive)

Prompt: What value of measured GI50 is listed for O=C(CCN1CCOCC1)C(=Cc1ccccc1)C(=O)CCN1CCOCC1 ?
Completion: 13.7 µM (inactive)

Prompt: Value lookup for GI50; key = CC/C(C)=C1\CCC(CN2CCOCC2)C1=O (stereo not given)
Completion: 24.2 µM (inactive)

Prompt: Given the compound CC(=O)OCC1OC(OC2CC3C(C)(C)C(=O)CC[C@]3(C)C3CC[C@]45C[C@]4(CCC5[C@@H](C)CC(O)C(O)C(C)(C)O)[C@]23C)C(O)C(O)C1O (stereo not given in full) , what is its reported GI50?
Completion: 10 µM (inactive)

Prompt: // returns reported GI50 for input COc1cc2c(cc1OC)C1C3CCCCC3CCN1CC2 (stereo not given)
Completion: > 100 µM (inactive)

Prompt: Returns the measured GI50 for the input compound. Input: CCOC(=O)C(=O)/C(=C/N1C(=O)CC(=O)NC1=S)C(=O)OCC
Completion: > 100 µM (inactive)

Prompt: Given COC1=CC(=O)c2nc3ccccc3c3ccnc1c23 , state its recorded GI50.
Completion: 3.1 µM (inactive)

Prompt: Which GI50 reading was recorded for the compound Cc1occc1C(=S)Nc1ccc(Cl)c(C(=O)OC(C(C)C)C(C)C)c1 ?
Completion: 9.23 µM (inactive)

Prompt: Need GI50, item CC(C)=CCc1c2c(c3occ(-c4ccc(O)c(O)c4)c(=O)c3c1O)C=CC(C)(C)O2
Completion: 1.22 µM (inactive)

Prompt: Look up GI50: COc1cccc(/C=C2\CCC(C)(CN(C)C)C2=O)c1 (stereo not given)
Completion: > 100 µM (inactive)

Prompt: What value of measured GI50 is listed for N#Cc1c(-c2ccccc2)cc(-c2ccc(Cl)cc2)[nH]c1=S ?
Completion: 31.9 µM (inactive)

Prompt: Name the recorded GI50 for N#Cc1nn(C(N)=O)c(N)c1C#N .
Completion: > 100 µM (inactive)

Prompt: Which GI50 value is on record for NC(=O)c1ncn(CCN2CCN(C(=O)NCCCCCCNC(=O)N3CCN(CCn4cnc(C(N)=O)c4N)CC3)CC2)c1N ?
Completion: > 100 µM (inactive)

Prompt: GI50 lookup needed for Oc1cccc(-c2cn3cc(Cl)ccc3n2)c1 , thanks.
Completion: 38.4 µM (inactive)

Prompt: Look up GI50: CC(C)(O)[C@@H]1CC[C@](C)(C2[C@@H](O)C[C@@]3(C)C4C[C@H](OC5OCC(O)C(O)C5O)[C@H]5C(C)(C)[C@@H](OC6OCC(O)C(O)C6OC6OCC(O)C(O)C6O)CC[C@@]56C[C@@]46CC[C@]23C)O1 (stereo not given in full)
Completion: > 100 µM (inactive)

Prompt: Item CCC/C(Cl)=N\OC(=O)Nc1ccc(OC(F)(F)F)cc1 has what recorded GI50?
Completion: 19.5 µM (inactive)

Prompt: For C/C(=N\NC(=O)c1ccccc1O)c1cccc(/C(C)=N/NC(=O)c2ccccc2O)n1.[Cl-].[Cl-].[Zn+2] , what is its reported GI50?
Completion: 2.01 µM (inactive)

Prompt: # query: GI50 of entry CC(C)(C)c1cc(C(=O)/C=C/c2cc[nH]n2)cc(C(C)(C)C)c1O
Completion: 1.88 µM (inactive)

Prompt: Record request: GI50 value, item Cc1ccc(S(=O)(=O)N/N=C/C2(c3ccccc3)c3ccccc3-c3ccccc32)cc1
Completion: 13.3 µM (inactive)

Prompt: Returns the measured GI50 for the input compound. Input: O=S(=O)(CC(Cl)c1ccccc1)c1nc2ccccc2s1 (stereo not given)
Completion: 17.5 µM (inactive)

* * *

Tested on: HCT-15
reportedEndpoint: GI50 (µM)
Give the number; µM is assumed, so skip it.

Prompt: // fetch HCT-15 GI50 for CCCCCCCCCCCCCCCCCCNc1nc(=O)n(C2CC(O)C(COP(=O)(O)OCC3OC(n4ccc(N)nc4=O)C(O)C3O)O2)cc1F (stereo unspecified)
Completion: 12.7

Prompt: Request - read-out GI50 | tested on HCT-15 | compound CN(C)CCC(/C=C/c1ccccc1)=N\Nc1ccccc1
Completion: 0.336

Prompt: Report GI50 for CC(C)OC(=O)c1ccc(NCC2=CC(=O)C=CC2=O)cc1Cl tested on HCT-15.
Completion: 4.4

Prompt: What value of GI50 on HCT-15 does CCCCCC1CC=CC(=O)O1 (stereo unspecified) have?
Completion: 5.07

Prompt: Any idea what GI50 came out for Oc1cccc(-c2cn3cc(Cl)ccc3n2)c1 on HCT-15?
Completion: 30.7

Prompt: Missing value: GI50, HCT-15, entry COC(=O)c1cc2c(c(C(=O)OC)c1)CCC2 . Fill in?
Completion: 63.1

Prompt: Entry COC12C=CC(CC1)C1C(=O)c3c(C)c(C)n(C)c3C(=O)C12 (stereo unspecified) , system HCT-15: what GI50 was measured?
Completion: 15.4

Prompt: Find the measured GI50: item O=C(/C=C/c1cccc([N+](=O)[O-])c1)N1CCN(CCOC(c2ccccc2)c2ccccc2)CC1 , target or system HCT-15.
Completion: 31.1

Prompt: GET /values?readout=GI50&system=HCT-15&item= ClCCN(CC#CCCCC#CCN(CCCl)CCCl)CCCl
Completion: 12.4

* * *

System: RXF 393
measurementDescription: NCI tumour cell line growth inhibition, 48 h
The source made the active and inactive calls. Rule as the data show it: active = GI50 up to about 1.1 µM and inactive = higher.
reportedEndpoint: GI50

Prompt: Please state recorded GI50 (tested on RXF 393) of CN/C=C(\C(=O)c1ccc(OC)c(OC)c1)c1ccc(OC)cc1
Completion: 14 µM (inactive)

Prompt: Short answer please: GI50, RXF 393, entry CC(=O)Oc1cc(OC(C)=O)c2cc3c(cc2c1OC(C)=O)C(=O)C1(CCCC1)C3=O
Completion: 17.2 µM (inactive)

Prompt: Item: O=C(O)CCC(NC(=O)c1ccccc1)C(=O)O (stereo not given) Test system: RXF 393 Read-out: GI50 Value: ?
Completion: > 100 µM (inactive)

Prompt: Item: COc1ccccc1/C=C1\CCC(CNc2ccc(Cl)cc2)C1=O (stereo not given) Test system: RXF 393 Read-out: GI50 Value: ?
Completion: 16.3 µM (inactive)

Prompt: Please provide the recorded GI50 for CC(C)(C)C1CCC2c3c([nH]c4ccccc34)C3C(=O)N(c4ccccc4Cl)C(=O)C3C2C1 (stereo not given) , tested on RXF 393.
Completion: 11.9 µM (inactive)

Prompt: So what GI50 did CC(C)=NNc1cnnc2ccc([N+](=O)[O-])cc12 get with RXF 393?
Completion: > 100 µM (inactive)

Prompt: Give RXF 393 GI50 for Cc1cc(C)nc(NS(=O)(=O)c2ccc(Nc3c4ccccc4nc4c(C(=O)N5CCN(CCO)CC5)ccc(Cl)c34)cc2)n1
Completion: > 100 µM (inactive)

Prompt: Query GI50 on RXF 393 for COC(=O)C1C2CC3C(OC(=O)C31)C2OC(=O)[C@](OC)(c1ccccc1)C(F)(F)F (stereo not given in full)
Completion: > 100 µM (inactive)

Prompt: // map N#CSCc1cccc(Nc2cc(=O)[nH]c(=O)[nH]2)c1 to recorded GI50 (system: RXF 393)
Completion: > 100 µM (inactive)

Prompt: Record lookup: for RXF 393, what GI50 belongs to CC(O)(c1ccccc1)c1nccc2ccccc12 (stereo not given) ?
Completion: > 100 µM (inactive)

* * *

Test system: OVCAR-3
measurementDescription: NCI tumour cell line growth inhibition, 48 h
The source made the active and inactive calls. Cut-off read from the data, not from the text of the source: active = GI50 up to about 1.1 µM and inactive = higher.
Result category, one only: active, inactive

Prompt: What outcome does the record of this test show for O=C(C=P(c1ccccc1)(c1ccccc1)c1ccccc1)c1cccc(-c2cccc([N+](=O)[O-])c2)c1 ?
Completion: inactive

Prompt: I would be grateful if you could indicate the recorded call for CCN(CC)CCCN1CCc2c([nH]c3ccccc23)C1c1cccnc1 (configuration not stated) .
Completion: inactive

Prompt: Hi, do you know how NNC(=O)CC(=O)Nc1cccc(Cl)c1 came out in this test?
Completion: inactive

Prompt: Hello, I am checking results. What call was entered for O=C1C2C3C4C1C1C2[C@H](OCc2ccccc2)C3C1[C@H]4OCc1ccccc1 (some centres not stated) ?
Completion: inactive

Prompt: Tell me the recorded outcome of this test for CCO/C=C(\C(=O)OC)S(=O)(=O)c1ccc(C)cc1 .
Completion: inactive

Prompt: What did the test return for CC(C)NCCCNc1c2ccccc2nc2cccc([N+](=O)[O-])c12 ?
Completion: active

Prompt: // param item: COc1cccc(C2CC(C)(O)Oc3cc4c(cc32)OCO4)c1 (configuration not stated) ; yields the recorded call
Completion: inactive
